Field: kon. Provide a value for each of the binders that follow.
assayed_target: T1, Taq DNA polymerase (Thermus aquaticus, UniProt P19821 1-832)
T1 construct: also called Taq enzyme; Taq DNA enzyme
T1 sequence (P19821 whole entry): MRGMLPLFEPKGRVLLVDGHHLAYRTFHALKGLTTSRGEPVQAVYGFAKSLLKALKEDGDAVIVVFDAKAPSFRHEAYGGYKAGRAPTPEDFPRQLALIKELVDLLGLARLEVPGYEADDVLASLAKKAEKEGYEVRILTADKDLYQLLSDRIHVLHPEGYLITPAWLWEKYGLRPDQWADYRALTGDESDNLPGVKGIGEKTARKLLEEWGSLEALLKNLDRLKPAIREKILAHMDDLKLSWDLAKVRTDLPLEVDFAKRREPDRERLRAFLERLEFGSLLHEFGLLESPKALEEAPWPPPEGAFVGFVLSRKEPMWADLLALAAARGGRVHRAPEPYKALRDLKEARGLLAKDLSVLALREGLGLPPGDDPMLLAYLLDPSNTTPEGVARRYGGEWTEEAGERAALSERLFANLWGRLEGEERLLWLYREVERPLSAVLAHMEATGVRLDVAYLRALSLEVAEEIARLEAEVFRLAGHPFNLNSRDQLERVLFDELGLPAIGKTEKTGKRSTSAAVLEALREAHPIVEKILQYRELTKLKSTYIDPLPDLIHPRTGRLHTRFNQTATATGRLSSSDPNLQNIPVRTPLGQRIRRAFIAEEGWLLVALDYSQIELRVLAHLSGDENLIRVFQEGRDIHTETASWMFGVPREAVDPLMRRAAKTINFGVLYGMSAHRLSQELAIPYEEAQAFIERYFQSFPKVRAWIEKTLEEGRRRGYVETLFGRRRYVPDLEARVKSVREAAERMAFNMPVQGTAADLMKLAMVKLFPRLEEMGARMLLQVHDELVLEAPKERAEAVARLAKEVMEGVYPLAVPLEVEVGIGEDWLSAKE
protocol_summary: AMC sensor, antibody immobilised
Give bare numbers, in M⁻¹ s⁻¹.

binder: Mutation 1-36 (antibody, V domains shown, Mutation 1 background; CDRs built) VH: QVQLQQPGAELVKPGASVRLSCQTSVETFSTYYIYWVKQRPGEGLEWIGGINPTSNPVFNEKFKSKATLTVDTSSSTAYMQLSSLTSVDSAVYYCTRSILRRGYYFDYWGQGTALTVSS VL: DIQMTQTTSSLSASLGDRVTISCRASQDIQNYVNWYQQKPDGTIKLLIYYTSRLQSGIPSRFSGSGSGTDYSLTIANLEQEDIATYFCQQDDTIPLTFGAGTKVELKR
quantity_measured: kon
reported_value: 50200
//
binder: Mutation 1-48 (antibody, V domains shown, Mutation 1 background; CDRs built) VH: QVQLQQPGAELVKPGASVRLSCQTSVETFSTYYIYWVKQRPGEGLEWIGGINPTSNPVFNEKFKSKATLTVDTSSSTAYMQLSSLTSVDSAVYYCTRSVLRRGYYFDYWGQGTALTVSS VL: DIQMTQTTSSLSASLGDRVTISCRASQDIQNYVNWYQQKPDGTIKLLIYYTSRLQSGVPSRFSGSGSGTDYSLTIANLEQEDIATYFCQQDDTVPLTFGAGTKVELKR
quantity_measured: kon
reported_value: 97900

Turning now to a further record.
Value lookup for kon; key = Mutation 1-51 (antibody, V domains shown, Mutation 1 background; CDRs built) VH: QVQLQQPGAELVKPGASVRLSCQTSVNTFTTYYIYWVKQRPGEGLEWIGGINPTSGGPVFNEKFKSKATLTVDTSSSTAYMQLSSLTSVDSAVYYCTRSLLRRGYYFDYWGQGTALTVSS VL: DIQMTQTTSSLSASLGDRVTISCRASQDINNYLNWYQQKPDGTIKLLIYYTSRLHSGVPSRFSGSGSGTDYSLTIANLEQEDIATYFCQQDDTLPLTFGAGTKVELKR 98300
